The reported measurements were obtained from the supplement of paper PMC10567573.

B1: INTS3 (parent)
chain: DLNSKGKKREFRFHPIKETVVEEP

- Variants of: B1
- ASSAY SUMMARY: protein stability index of a GFP-peptide fusion (GPS, HEK-293T) (PSI 1-6); higher = more stable;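 also: lentivirally expressed fusions sorted by FACS into six bins by GFP to DsRed ratio, PSI derived from sequencing read proportions per bin multiplied by bin number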
- CONDITION SET: c terminus: a fixed tail appended
EXPERIMENTAL READOUT: protein stability index
Answer with the value's number alone.

Some entries whose results are on file:
R12Q ... 4
F11W ... 2.1
P24A ... 2.2
K8G ... 2.08
L2Q ... 2.69

Consider the variant V20Y and give its measured protein stability index.
1.92

Next record, please: F13T
4.02

Next record, please: K7W
2.58

Next record, please: K17T
2.77

Next record, please: V21A
2.01

Next record, please: F13G
4.31

Next record, please: K7Q
2.54

Next record, please: V21M
2.08

Next record, please: G6F
1.74

Next record, please: V20C
2.29

Next record, please: V21K
2.01

Next record, please: E22W
2.11

Next record, please: G6P
2.42
